Biological target: Cellular tumor antigen p53 (Homo sapiens) (UniProt P04637)
Sequence (P04637 whole entry, looked up): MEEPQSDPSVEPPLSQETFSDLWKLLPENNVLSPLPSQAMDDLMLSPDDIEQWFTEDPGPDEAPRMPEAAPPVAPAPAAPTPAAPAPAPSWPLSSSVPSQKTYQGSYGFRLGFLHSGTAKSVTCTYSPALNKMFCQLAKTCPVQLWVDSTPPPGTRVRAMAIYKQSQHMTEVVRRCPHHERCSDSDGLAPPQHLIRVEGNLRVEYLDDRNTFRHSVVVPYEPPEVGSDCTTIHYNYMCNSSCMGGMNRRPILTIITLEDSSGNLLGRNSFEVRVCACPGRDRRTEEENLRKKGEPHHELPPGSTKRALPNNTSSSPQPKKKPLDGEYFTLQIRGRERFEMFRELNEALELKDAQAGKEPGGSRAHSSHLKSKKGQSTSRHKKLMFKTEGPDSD
Test: TOX21_p53_BLA_p4_ratio: Tox21 HCT-116 p53 Agonism Beta-lactamase Assay, Ratio, Phase 4 (AID 2283601)
Results filed as inconclusive are left out. Calls of active or inactive are those of the source. How the source made its calls: active means hit-call score of the fitted dose curve at least 0.9, where 1 is the maximum; inconclusive means response in the unintended direction; inactive means score below 0.9.
# valid calls are class 1 for active, class 0 for inactive; nothing else

>>> group("COc1ccc2c3c1O[C@H]1[C@@H](O)C=C[C@H]4[C@@H](C2)NCC[C@@]341")
"class 0"
>>> group("[Cl][Sb]([Cl])[Cl]")
"class 0"
>>> group("Cc1ncc(C[n+]2csc(CCO)c2C)c(N)n1")
"class 0"
>>> group("C[C@@H]1CC[C@@]2(OC1)O[C@H]1[C@@H](O)[C@H]3[C@@H]4CC[C@H]5C[C@@H](O[C@@H]6O[C@H](CO)[C@H](O[C@@H]7O[C@H](CO)[C@@H](O)[C@H](O[C@@H]8OC[C@@H](O)[C@H](O)[C@H]8O)[C@H]7O[C@@H]7O[C@H](CO)[C@@H](O)[C@H](O[C@@H]8O[C@H](CO)[C@@H](O)[C@H](O)[C@H]8O)[C@H]7O)[C@H](O)[C@H]6O)[C@H](O)C[C@]5(C)[C@H]4CC[C@]3(C)[C@H]1[C@@H]2C")
"class 1"

stdin: Returns: the outcome recorded for O=[N+]([O-])c1ccccc1CCl in this assay.
stdout: class 0
